Tested on: wild-type HCT116 colon cancer cells
Assay: Anti-proliferative IC50 assay (SRB), wild-type HCT116
Format: cell-based, human
Conditions: 4 hour exposure, 5 days growth; read-out: HCT116-WT IC50
readout.name: pIC50
# pIC50 = -log10(concentration in molar units)

Query :: Return pIC50 measured with wild-type HCT116 colon cancer cells given this molecule: O=C(NCCO)c1cc([N+](=O)[O-])cc([N+](=O)[O-])c1N(CCBr)CCBr [SN27686, reference compound]
Result :: 4.37

---

Experiment: Stability in solution by HPLC in water and lactate buffer
Type: physicochemical
Details: pH 4; lactate buffer, room temperature
readout.name: half-life

Query :: Give its half-life value. Item: `CN1CCN(S(=O)(=O)c2cc([N+](=O)[O-])ccc2N(CCOS(C)(=O)=O)CCOS(C)(=O)=O)CC1`
Result :: ~24 h

---

Test system: HCT116 colon cancer cells engineered to over-express AKR1C3
Assay: Anti-proliferative IC50 assay (SRB), HCT116 over-expressing AKR1C3
Format: cell-based, human
Details: HCT116-WT vs HCT116-AKR1C3
readout.name: IC50 Ratio WT:AKR1C3
Give only the figure.

Query :: Return IC50 Ratio WT:AKR1C3 measured with HCT116 colon cancer cells engineered to over-express AKR1C3 given this compound: `CN1CCN(S(=O)(=O)c2cc([N+](=O)[O-])ccc2N(CCBr)CCBr)CC1`
Result :: 816

Query :: Now this one: CS(=O)(=O)OCCN(CCOS(C)(=O)=O)c1ccc([N+](=O)[O-])cc1S(=O)(=O)N1CCN(CC(O)CO)CC1 (stereo not shown)
Result :: 978

Query :: Now this one: O=[N+]([O-])c1ccc(N(CCBr)CCBr)c(S(=O)(=O)N2CCN(CC(O)CO)CC2)c1 (stereo not shown)
Result :: 3340

Query :: Now this one: O=C(NCCO)c1cc([N+](=O)[O-])cc([N+](=O)[O-])c1N(CCBr)CCBr [SN27686, reference compound]
Result :: 29

Query :: Now this one: `CN1CCN(S(=O)(=O)c2cc([N+](=O)[O-])ccc2N(CCBr)CCOS(C)(=O)=O)CC1`
Result :: 4260

---

System: HCT116 colon cancer cells engineered to over-express AKR1C3
Test: Anti-proliferative IC50 assay (SRB), HCT116 over-expressing AKR1C3
Assay type: cell-based, human
Details: read-out: HCT116-AKR1C3 + AKR1C3 Inhibitor IC50; with 3 μM SN34037
readout.name: pIC50
# pIC50 = -log10(concentration in molar units)

Query :: Return pIC50 measured with HCT116 colon cancer cells engineered to over-express AKR1C3 given this molecule: `CCN1CCN(S(=O)(=O)c2cc([N+](=O)[O-])ccc2N(CCOS(C)(=O)=O)CCOS(C)(=O)=O)CC1`
Result :: 6.08

Query :: Now this one: `CN1CCN(S(=O)(=O)c2cc([N+](=O)[O-])ccc2N(CCOS(C)(=O)=O)CCOS(C)(=O)=O)CC1`
Result :: 5.51

Query :: Now this one: CS(=O)(=O)OCCN(CCBr)c1ccc([N+](=O)[O-])cc1S(=O)(=O)N1CCN(CC(O)CO)CC1 (stereo not shown)
Result :: 5.45

Query :: Now this one: `CN1CCN(S(=O)(=O)c2cc([N+](=O)[O-])ccc2N(CCBr)CCBr)CC1`
Result :: 5.49

Query :: Now this one: `CN1CCN(S(=O)(=O)c2cc([N+](=O)[O-])ccc2N(CCBr)CCOS(C)(=O)=O)CC1`
Result :: 5.75

Query :: Now this one: CS(=O)(=O)OCCN(CCBr)c1c(C(=O)NCCO)cc([N+](=O)[O-])cc1[N+](=O)[O-] [PR-104A, reference compound]
Result :: 4.38

Query :: Now this one: O=[N+]([O-])c1ccc(N(CCBr)CCBr)c(S(=O)(=O)N2CCN(CC(O)CO)CC2)c1 (stereo not shown)
Result :: 5.76

Sourced from patent US11661404B2
